FYI, the data here is from patent US20170089928A1.

Target: T1, BSA heat-denatured for 120 minutes (bovine, UniProt P02769 25-607)
T1 construct: Autoclaved at 110 C for 120 min; also called heat denaturation period 120 min
T1 sequence (P02769 25-607 limits assumed): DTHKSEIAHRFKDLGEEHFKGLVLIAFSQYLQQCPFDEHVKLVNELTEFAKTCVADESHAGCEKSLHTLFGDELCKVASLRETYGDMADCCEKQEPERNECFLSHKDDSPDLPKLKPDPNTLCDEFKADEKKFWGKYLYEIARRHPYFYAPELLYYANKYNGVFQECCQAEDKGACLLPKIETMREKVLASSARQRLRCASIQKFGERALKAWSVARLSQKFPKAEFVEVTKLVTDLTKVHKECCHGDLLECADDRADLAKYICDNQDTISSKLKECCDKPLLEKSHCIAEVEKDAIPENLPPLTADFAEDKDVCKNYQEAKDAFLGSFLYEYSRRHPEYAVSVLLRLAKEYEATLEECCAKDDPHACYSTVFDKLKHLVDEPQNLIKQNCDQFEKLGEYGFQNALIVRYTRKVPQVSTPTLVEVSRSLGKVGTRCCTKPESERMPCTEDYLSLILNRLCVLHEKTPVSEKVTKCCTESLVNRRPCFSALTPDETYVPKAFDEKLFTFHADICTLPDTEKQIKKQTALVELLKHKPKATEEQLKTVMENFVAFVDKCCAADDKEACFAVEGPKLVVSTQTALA
Experiment: turbidity (OD550), Hill plot analysis; heat denaturation period 120 min

binder | Kd / µM
SYSMEHFRWGKPVGKKRRPVKVYP (also called basic peptide of interest) [partial ACTH peptide consisting of the amino acids of positions 1 to 24 of ACTH] | 33
